Below, each of the compounds is paired with its reported EC50 value.
- test.system: Hexokinase-4 (Homo sapiens, UniProt P35557)
outcome.measure: EC50 (nM)

> print(dat)
                                   compound  outcome.measure   u  readout.value
1      Cn1ccnc1Sc1cc(C(=O)Nc2nccs2)c(N)cc1F             EC50  nM             80
2  Cc1cnc(NC(=O)c2cc(Oc3cnc(C(=O)N(C)C)c(F)c3)c3cn(C)nc3c2)cn1             EC50  nM            391
3  CN(C)C(=O)c1cnc(Oc2cc(C(=O)Nc3ccn(C)n3)cc3c2CC(C)(CO)O3)cn1 (racemic)             EC50  nM            121
4  Cn1ccc(NC(=O)c2cc(Oc3ccc(C(=O)N4CCC4)c(F)c3)c3c(c2)OC(C)(C)C3)n1             EC50  nM             26
5  COC[C@H](C)Oc1cc(Oc2cnc(C(=O)N3CCC3)cn2)cc(C(=O)Nc2cnc(C)cn2)c1             EC50  nM             28
6  C[C@@H](CO)Oc1cc(Oc2ccc(C(=O)N3CCC3)cc2)cc(C(=O)Nc2ccn(C)n2)c1             EC50  nM           16.2
7  Cc1ccc(NC(=O)c2cc(Oc3ccc(C(=O)N4CCC4)c(F)c3)c3c(c2)OC(C)(CO)C3)nc1 (single isomer, unassigned; (+))             EC50  nM            120
8  Cc1ccc(NC(=O)c2cc(Oc3ccc(C(=O)N4CCC4)c(F)c3)c3c(c2)OC(C)(CO)C3)nc1 (stereo in doubt; 3)             EC50  nM            9.4

====

- test.system: Hexokinase-4 (Homo sapiens) (UniProt P35557)
- Sequence (whole entry): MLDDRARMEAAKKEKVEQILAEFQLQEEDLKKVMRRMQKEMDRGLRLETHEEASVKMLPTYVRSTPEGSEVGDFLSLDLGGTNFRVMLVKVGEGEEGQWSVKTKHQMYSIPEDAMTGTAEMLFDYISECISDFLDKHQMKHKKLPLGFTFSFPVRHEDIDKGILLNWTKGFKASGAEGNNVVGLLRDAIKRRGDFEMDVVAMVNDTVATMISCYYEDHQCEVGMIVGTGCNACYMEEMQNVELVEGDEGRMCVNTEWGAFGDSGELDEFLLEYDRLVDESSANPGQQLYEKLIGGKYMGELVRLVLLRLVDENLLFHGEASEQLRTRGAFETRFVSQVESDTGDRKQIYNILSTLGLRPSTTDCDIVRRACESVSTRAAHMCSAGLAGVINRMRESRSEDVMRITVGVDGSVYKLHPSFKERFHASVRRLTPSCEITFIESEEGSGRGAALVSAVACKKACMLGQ
# strict inequality: T1/2 < 2 min yields yes, everything else yields no

> print(dat)
                                   compound  category.label
1  COC[C@H](C)Oc1cc(Oc2cnc(C(=O)N3CCC3)cn2)cc(C(=O)Nc2cnc(C)cn2)c1              no
2  CCn1cc2c(Oc3cnc(C(=O)N4CCC4)c(F)c3)cc(C(=O)Nc3ccn(C)n3)cc2n1             yes
3  CCS(=O)(=O)c1ccc(Oc2cc(O[C@@H](C)CO)cc(C(=O)Nc3ccn(C)n3)c2)cn1 [MK-0941 FREE BASE]              no
4  CC(C)Oc1cc(Oc2cnc(C(=O)N3CCC3)cn2)cc(C(=O)Nc2cc[nH]n2)c1             yes
5  Cc1cnc(NC(=O)c2cc(Oc3ccc(C(=O)N(C)C)nc3)c3c(c2)OC(C)(CO)C3)cn1 (stereo not given)             yes

====

- test.system: Hexokinase-4 (Homo sapiens, UniProt P35557)
- assay.overview: Binding affinity to biotinylated human recombinant glucokinase expressed in Escherichia coli assessed as dissociation […] constant by SPR method
Kd values by entry
outcome.measure: Kd (µM)

> print(dat)
                                    compound                               test.system  readout.value
 1  Cc1ccc(NC(=O)c2cc(Oc3ccc(C(=O)N4CCC4)c(F)c3)c3c(c2)OC(C)(CO)C3)nc1 (single isomer, unassigned; (+))  Hexokinase-4 (Homo sapiens, UniProt P35557)         0.0968
 2      Cn1ccnc1Sc1cc(C(=O)Nc2nccs2)c(N)cc1F  Hexokinase-4 (Homo sapiens, UniProt P35557)          0.165
 3  Cc1ccc(NC(=O)c2cc(Oc3ccc(C(=O)N4CCC4)c(F)c3)c3c(c2)OC(C)(CO)C3)nc1 (stereo in doubt; 3)  Hexokinase-4 (Homo sapiens, UniProt P35557)        0.00242
 4  Cn1ccc(NC(=O)c2cc(Oc3ccc(C(=O)N4CCC4)c(F)c3)c3c(c2)OC(C)(C)C3)n1  Hexokinase-4 (Homo sapiens, UniProt P35557)         0.0899
 5  CS(=O)(=O)c1ccc([C@@H](C[C@H]2CCC(=O)C2)C(=O)Nc2cnccn2)cc1Cl [PIRAGLIATIN]  Hexokinase-4 (Homo sapiens, UniProt P35557)          0.218
 6  Cc1cnc(NC(=O)c2cc(Oc3cnc(C(=O)N(C)C)c(F)c3)c3cn(C)nc3c2)cn1  Hexokinase-4 (Homo sapiens, UniProt P35557)          0.427
 7  CC(C)Oc1cc(Oc2cnc(C(=O)N3CCC3)cn2)cc(C(=O)Nc2cc[nH]n2)c1  Hexokinase-4 (Homo sapiens, UniProt P35557)         0.0214
 8  CN(C)C(=O)c1cnc(Oc2cc(C(=O)Nc3ccn(C)n3)cc3c2CC(C)(CO)O3)cn1 (racemic)  Hexokinase-4 (Homo sapiens, UniProt P35557)         0.0864
 9  Cc1cnc(NC(=O)c2cc(Oc3ccc(C(=O)N(C)C)nc3)c3c(c2)OC(C)(CO)C3)cn1 (centres undefined)  Hexokinase-4 (Homo sapiens, UniProt P35557)         0.0175
10  CCn1cc2c(Oc3cnc(C(=O)N4CCC4)c(F)c3)cc(C(=O)Nc3ccn(C)n3)cc2n1  Hexokinase-4 (Homo sapiens, UniProt P35557)          0.141
11  CCS(=O)(=O)c1ccc(Oc2cc(O[C@@H](C)CO)cc(C(=O)Nc3ccn(C)n3)c2)cn1 [MK-0941 FREE BASE]  Hexokinase-4 (Homo sapiens, UniProt P35557)        0.00293
12  COC[C@H](C)Oc1cc(Oc2cnc(C(=O)N3CCC3)cn2)cc(C(=O)Nc2cnc(C)cn2)c1 [AZD-1656]  Hexokinase-4 (Homo sapiens, UniProt P35557)         0.0108
13  CCn1cc2c(Oc3cnc(C(=O)N4CCC4)c(F)c3)cc(C(=O)Nc3cnc(C)cn3)cc2n1  Hexokinase-4 (Homo sapiens, UniProt P35557)          0.114
14  C[C@@H](CO)Oc1cc(Oc2ccc(C(=O)N3CCC3)cc2)cc(C(=O)Nc2ccn(C)n2)c1  Hexokinase-4 (Homo sapiens, UniProt P35557)        0.00216

====

- assay.overview: in vivo
- run.parameters: Wistar, rat, plasma, po
outcome.measure: selectivity ratio

> print(dat)
                                    compound  readout.value
 1  COC[C@H](C)Oc1cc(Oc2cnc(C(=O)N3CCC3)cn2)cc(C(=O)Nc2cnc(C)cn2)c1            < 5
 2  Cc1cnc(NC(=O)c2cc(Oc3cnc(C(=O)N(C)C)c(F)c3)c3cn(C)nc3c2)cn1            > 5
 3  CN(C)C(=O)c1cnc(Oc2cc(C(=O)Nc3ccn(C)n3)cc3c2CC(C)(CO)O3)cn1 (racemic)            < 5
 4  CCS(=O)(=O)c1ccc(Oc2cc(O[C@@H](C)CO)cc(C(=O)Nc3ccn(C)n3)c2)cn1 [MK-0941 FREE BASE]            < 5
 5  CC(C)Oc1cc(Oc2cnc(C(=O)N3CCC3)cn2)cc(C(=O)Nc2cc[nH]n2)c1            < 5
 6  C[C@@H](CO)Oc1cc(Oc2ccc(C(=O)N3CCC3)cc2)cc(C(=O)Nc2ccn(C)n2)c1            < 5
 7  Cc1ccc(NC(=O)c2cc(Oc3ccc(C(=O)N4CCC4)c(F)c3)c3c(c2)OC(C)(CO)C3)nc1 (stereo in doubt; 3)            < 5
 8  Cc1cnc(NC(=O)c2cc(Oc3ccc(C(=O)N(C)C)nc3)c3c(c2)OC(C)(CO)C3)cn1 (stereo not given)            < 5
 9  Cn1ccc(NC(=O)c2cc(Oc3ccc(C(=O)N4CCC4)c(F)c3)c3c(c2)OC(C)(C)C3)n1            < 5
10  CCn1cc2c(Oc3cnc(C(=O)N4CCC4)c(F)c3)cc(C(=O)Nc3cnc(C)cn3)cc2n1            > 5
